system: CCRF-CEM; experiment: NCI tumour cell line growth inhibition, 48 h
Calls of active or inactive are those of the source. No stated cut-off is given here; in the data, active = GI50 up to about 1.1 µM and inactive = higher.
Pick one: active, inactive

Field: outcome | Entry: CC(=O)CC(=O)N1CCSC1=S inactive

Field: outcome | Entry: NC(=O)NC(=O)C1CCC(=O)N1S(=O)(=O)c1ccc(Cl)cc1 (stereo not given) inactive

Field: outcome | Entry: CC(=O)Nc1cc(C(=O)Nc2cc(C(=O)N3CC(CCl)c4c3cc(N)c3ccccc43)nn2C)nn1C (stereo not given) active

Field: outcome | Entry: CCCn1c2c(c3ccccc3c1=O)C(=O)c1ccccc1-2 inactive

Field: outcome | Entry: CC1=CC(=O)CCC2(C)C1CC[C@@H]2OC=O (stereo not given in full) inactive

Field: outcome | Entry: COc1ccc(/C=N/Nc2nc3ccccc3c(=O)n2-c2ccccc2)c(OCc2ccccc2)c1 inactive

Field: outcome | Entry: C[N+](C)(C)CCCSc1nc2ccccc2[nH]1 inactive

Field: outcome | Entry: CCOC(=O)C(NC(=O)OCc1ccccc1)C(=O)O (stereo not given) inactive

Field: outcome | Entry: CCc1c(O)c(O)c(C(C)=O)c2c(O)c(-c3c(C)cc4c(CC)c(O)c(O)c(C(C)=O)c4c3O)c(C)cc12 inactive

Field: outcome | Entry: COc1cccc(NC(=O)C(C)(C)C)c1SSc1c(NC(=O)C(C)(C)C)cccc1OC inactive

Field: outcome | Entry: CCOCC(=O)N[C@H]1CCc2cc(OC)c(OC)c(OC)c2-c2ccc(OC)c(=O)cc21 active

Field: outcome | Entry: C1CCN(c2nsc(N3CCCCC3)n2)CC1 inactive

Field: outcome | Entry: C/N=C1\S/C(=N\c2ccc(N(C)C)cc2)N1C inactive

Field: outcome | Entry: Clc1nss/c1=N/c1nonc1-c1ccccc1 inactive

Field: outcome | Entry: COC1C(O)CC(OC2CC(Oc3cc4cc5c(c(O)c4c(O)c3C)C(=O)[C@@H](OC3CC(OC4CC(OC6CC(C)(O)C(OC(C)=O)C(C)O6)C(O)C(C)O4)C(O)C(C)O3)[C@H]([C@H](OC)C(=O)[C@@H](O)[C@@H](C)O)C5)OC(C)C2OC(C)=O)OC1C (stereo not given in full) active

---

tested on: UACC-62; test: NCI tumour cell line growth inhibition, 48 h
The source made the active and inactive calls. No stated cut-off is given here; in the data, active = GI50 up to about 1.1 µM and inactive = higher.
For each entry below, report its GI50 value.

Consider the compound CCn1c(-c2ccccc2)cs/c1=N\C(P(=O)(O)O)P(=O)(O)O and give its recorded GI50. > 100 µM (inactive)

Consider the compound Cn1c(=O)c(NC(=O)C(Cl)(Cl)Cl)nc2ccccc21 and give its recorded GI50. > 100 µM (inactive)

Consider the compound COc1cc2c(cc1OC)C(=O)/C(=C/c1ccc(O)cc1)CC2 and give its recorded GI50. > 10 µM (inactive)

Consider the compound Nc1ncc2c(n1)-c1ccccc1OC2 and give its recorded GI50. 55.7 µM (inactive)

Consider the compound Cc1ccc(NC(=O)CSc2nc(C)nc3c2sc(=S)n3-c2ccccc2)cc1 and give its recorded GI50. > 10 µM (inactive)

Consider the compound C[C@]12CC[C@@H]3c4ccc(O)cc4CC[C@H]3[C@@H]1C/C(=C\c1ccncc1)[C@@H]2O and give its recorded GI50. 10.8 µM (inactive)

---

test system: MCF7; experiment: NCI tumour cell line growth inhibition, 48 h
Active and inactive are the calls of the source. No stated cut-off is given here; in the data, active = GI50 up to about 1.1 µM and inactive = higher.
Pick one: label 1 (active), label 0 (inactive)

Field: outcome | Entry: COc1ccc(/C=N/Nc2nc3ccccc3c(=O)n2-c2ccccc2)c(OCc2ccccc2)c1 label 1

Field: outcome | Entry: O=C1Nc2ccccc2/C1=N/Nc1ncccc1[N+](=O)[O-] label 0

Field: outcome | Entry: CCCC[C@H]1[C@@H](OCOc2ccccc2)COC(=O)N1[C@H](C)c1ccccc1 label 0

Field: outcome | Entry: CC(C)n1c2c(c3ccccc3c1=O)C(=O)c1ccccc1-2 label 0

Field: outcome | Entry: O=c1ccc(=O)n(-c2ccccc2)[nH]1 label 0

Field: outcome | Entry: COC1CC(N)(c2ccccc2)C(O)C(C)O1 (stereo unspecified) label 0
